src = patent US20210380703A1

Here, each record is paired with measured optical density data.
test_target: Mouse ACVR2A (mouse, UniProt P27038 20-135, limits assumed); further: test concentration or dose not given here
Sequence (P27038 20-135 limits assumed): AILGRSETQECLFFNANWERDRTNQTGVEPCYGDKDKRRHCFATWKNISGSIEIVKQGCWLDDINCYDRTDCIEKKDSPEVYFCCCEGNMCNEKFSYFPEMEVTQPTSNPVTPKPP
assay_overview: ELISA
assay_endpoint: optical density (OD)

binder	assay_endpoint	value_observed
371_F03 (antibody, V domains shown, VH/VL only) VH: EVQLLESGGGLVQPGGSLRLSCAASGFTFSSYSMNWVRQAPGKGLEWVSGINYNGGYTSYADSVKGRFTISRDNSKNTLYLQMNSLRAEDTAVYYCARGATWHDTHLDYWGQGTLVTVSS VL: DIQMTQSPSSLSASVGDRVTITCRASQSIITYLNWYQQKPGKAPKLLIYAATSLHSGVPSRFSGSGSGTDFTLTISSLQPEDFATYYCQQSYDNPLTFGGGTKVEIK	optical density	1.3
376_A05 (antibody, V domains shown, VH/VL only) VH: EVQLLESGGGLVQPGGSLRLSCAASGFTFSSYSMNWVRQAPGKGLEWVAGINYNSGYKGYADSVKGRFTISRDNSKNTLYLQMNSLRAEDTAVYYCARGATWHDTHLDYWGQGTLVTVSS VL: DIQMTQSPSSLSASVGDRVTITCRASQSILTYLNWYQQKPGKAPKLLIYAATSRASGVPSRFSGSGSGTDFTLTISSLQPEDFATYYCQQSYNTPLTFGGGTKVEIK	optical density	3.64
370_H06 (antibody, V domains shown, VH/VL only) VH: EVQLLESGGGLVQPGGSLRLSCAASGFTFDDYSMNWVRQAPGKGLEWVANINYNGGYTGYADSVKGRFTISRDNSKNTLYLQMNSLRAEDTAVYYCARGATWHDTHLDYWGQGTLVTVSS VL: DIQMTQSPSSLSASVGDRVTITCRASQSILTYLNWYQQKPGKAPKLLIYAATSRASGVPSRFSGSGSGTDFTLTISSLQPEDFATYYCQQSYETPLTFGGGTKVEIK	optical density	3.39
367_A05 (antibody, V domains shown, VH/VL only) VH: EVQLLESGGGLVQPGGSLRLSCAASGFTFSDYGMNWVRQAPGKGLEWVSSINYNGGYKGYADSVKGRFTISRDNSKNTLYLQMNSLRAEDTAVYYCARSANWHDTALDYWGQGTLVTVSS VL: DIQMTQSPSSLSASVGDRVTITCRASQSILSYLNWYQQKPGKAPKLVIYAVTSRASGVPSRFSGSGSGTDFTLTISSLQPEDFATYYCQQSYDSPLTFGGGTKVEIK	optical density	2.38
365_H02 (antibody, V domains shown, VH/VL only) VH: EVQLLESGGGLVQPGGSLRLSCAASGFTFSDYGMNWVRQAPGKGLEWVSSINYNGGYTGYADSVKGRFTISRDNSKNTLYLQMNSLRAEDTAVYYCARSANWHDTHLDYWGQGTLVTVSS VL: DIQMTQSPSSLSASVGDRVTITCRASQSILTYLNWYQQKPGKAPKLLIYAATSRASGVPSRFSGSGSGTDFTLTISSLQPEDFATYYCQQSYENPLTFGGGTKVEIK	optical density	2.91
